Attribution: ChEMBL document CHEMBL1201862

Tested on: OVCAR-3
Assay: NCI tumour cell line growth inhibition, 48 h
Active and inactive are the calls of the source. No stated cut-off is given here; in the data, active = GI50 up to about 1.1 µM and inactive = higher.
We begin with a simple list: items and their reported GI50.

>  <MOLECULE>
C/C(=C\c1ccccc1)C(=O)c1c(C)cc(C)cc1C

>  <GI50>
> 100 µM (inactive)

$$$$
>  <MOLECULE>
O=C1C=CN(C2OC(CO)C(O)C2O)C(=O)C1 (stereo not given)

>  <GI50>
692 µM (inactive)

$$$$
>  <MOLECULE>
Cc1ccccc1C(=O)N/N=C/c1ccc(Sc2nccn2C)c([N+](=O)[O-])c1

>  <GI50>
> 100 µM (inactive)

$$$$
>  <MOLECULE>
O=P(O)(NCCCl)NCCCl [PALIFOSFAMIDE]

>  <GI50>
> 10 µM (inactive)

$$$$
>  <MOLECULE>
COc1cc(/C=C2/C(=O)N(C(=O)c3ccc(Cl)cc3)N=C2C)cc(OC)c1OC

>  <GI50>
> 100 µM (inactive)

$$$$

----------
We begin with a simple list: items and their reported GI50.
System: RPMI-8226
Experiment: NCI tumour cell line growth inhibition, 48 h
Calls of active or inactive are those of the source. Cut-off read from the data, not from the text of the source: active = GI50 up to about 1.1 µM and inactive = higher.

>  <MOLECULE>
CCOc1ccccc1-c1nc2c(s1)C(=O)c1ccccc1C2=O

>  <GI50>
7.26 µM (inactive)

$$$$
>  <MOLECULE>
COCC(C)(C)/N=C/N1Cc2cc3ccccc3nc2C1

>  <GI50>
> 100 µM (inactive)

$$$$
>  <MOLECULE>
C[C@]12CC[C@@H]3c4ccc(OCC(=O)O)cc4CC[C@H]3[C@@H]1CCC2=O

>  <GI50>
> 100 µM (inactive)

$$$$
>  <MOLECULE>
CC(C)(C)N/N=C(/Cc1nc2c3c(ccc2nc1O)C(=O)c1ccccc1C3=O)C(=O)NC1=C(Cl)C(=O)c2ccccc2C1=O

>  <GI50>
78.9 µM (inactive)

$$$$
>  <MOLECULE>
COC(=O)C(Cc1c[nH]c2ccccc12)NP(=O)(O)OCC1OC(n2cc(F)c(=O)[nH]c2=O)CC1O (configuration not stated)

>  <GI50>
31.3 µM (inactive)

$$$$
>  <MOLECULE>
C[C@@H]1C2=CC[C@@]3(C)C(CCC3[C@H](C)[C@H]3C[C@@]4(C)O[C@@](c5cccnc5)(O3)OC4(C)C)[C@@H]2C2OC2[C@@]12CCC(=O)O2 (some centres not stated)

>  <GI50>
29.2 µM (inactive)

$$$$
>  <MOLECULE>
Cc1cc(C)c2c(c1)CN1CN2Cc2cc(C)cc(C)c21

>  <GI50>
19.9 µM (inactive)

$$$$

----------
We begin with a simple list: items and their reported GI50.
Tested on: M19-MEL
Assay: NCI tumour cell line growth inhibition, 48 h
The source made the active and inactive calls. No stated cut-off is given here; in the data, active = GI50 up to about 1.1 µM and inactive = higher.

>  <COMPOUND>
CC1=C(NC(=O)C(=O)NNC(=O)c2ccncc2)C(=O)c2ccccc2C1=O

>  <TARGET OF ASSAY>
M19-MEL

>  <GI50>
1.64 µM (inactive)

$$$$
>  <COMPOUND>
CC(C)c1ccc(Cc2ccc(C(C)C)c(NC(=O)C(=O)Cc3cnc4ccccc4n3)c2C(C)C)c(C(C)C)c1NC(=O)C(=O)Cc1cnc2ccccc2n1

>  <TARGET OF ASSAY>
M19-MEL

>  <GI50>
> 100 µM (inactive)

$$$$
>  <COMPOUND>
OCC(O)C(OC1OC(CO)C(O)C(O)C1O)c1nn(-c2ccc(Cl)cc2)c2nc3cc(Cl)ccc3nc12 (stereo not drawn)

>  <TARGET OF ASSAY>
M19-MEL

>  <GI50>
> 100 µM (inactive)

$$$$
>  <COMPOUND>
COc1cc(/C=C2/C(=O)N(C(=O)c3ccc(Cl)cc3)N=C2C)cc(OC)c1OC

>  <TARGET OF ASSAY>
M19-MEL

>  <GI50>
> 100 µM (inactive)

$$$$
>  <COMPOUND>
COC(=O)[C@@]12OC[C@]34C([C@@H](O)C1O)[C@@]1(C)CC(=O)C(O)=C(C)C1C[C@H]3OC(=O)[C@H](OC(=O)/C=C(/c1ccccc1)C(F)(F)F)[C@H]42 (stereo partly drawn)

>  <TARGET OF ASSAY>
M19-MEL

>  <GI50>
1.19 µM (inactive)

$$$$
>  <COMPOUND>
CC[P+](C)(Cc1ccccc1)c1ccccc1 (stereo not drawn)

>  <TARGET OF ASSAY>
M19-MEL

>  <GI50>
43.4 µM (inactive)

$$$$
>  <COMPOUND>
CC[C@@H]1OC2(C)CC(S(=O)(=O)c3ccccc3)CC1O2 (stereo partly drawn)

>  <TARGET OF ASSAY>
M19-MEL

>  <GI50>
> 100 µM (inactive)

$$$$
>  <COMPOUND>
CCCCCCCCCCCCCP(=O)(NCC(N)=O)OCC (stereo not drawn)

>  <TARGET OF ASSAY>
M19-MEL

>  <GI50>
19.7 µM (inactive)

$$$$
